# method: inhibitors of HIV fusion peptide binding, primary screen, biochemical, uHTS, fluorescence dequenching (AID 1986)
# reported-conditions: cell-free peptide binding, 30 min, at 20 µM, stronger effect = higher value
Screen size: about 290,000 compounds; about 890 (0.31%) were called active. This is one part of a sample in which actives are shown more often than they occur.
# inhibition per entry

Worked cases, answers included:
[[record]]
compound = "COc1ccc(O)c(/C=c2/sc3nc4cc(C)c(C)cc4n3c2=O)c1"
parameter = "inhibition"
result = "-3.1% (inactive)"

[[record]]
compound = "Cc1ccc(C(=O)NCC(c2ccc(F)cc2)N2CCOCC2)cc1 (stereo not drawn)"
parameter = "inhibition"
result = "-1.6% (inactive)"


Reported inhibition, compound `O=C(CSC1=NCCS1)N1CCCC1` : ____
4.9% (inactive)

* * *

inhibition listing for selected compounds.
# method: inhibitors of HIV fusion peptide binding, primary screen, biochemical, uHTS, fluorescence dequenching (AID 1986)
# reported-conditions: cell-free peptide binding, 30 min, measured here: repeat confirmation average inhibition, at 18.6 µM, stronger effect = higher value
Screen size: about 290,000 compounds; about 890 (0.31%) were called active. The sample as a whole holds a higher share of actives than the screen did.
Enter your answer as a number in %; do not include the unit.

Past entries and their recorded results:
[[record]]
compound = "Cc1ccc(S(=O)(=O)/N=C2/NC(=O)/C(=C\\c3cc(Br)cc(Br)c3O)S2)cc1"
units_text = "%"
result_number = 132

[[record]]
compound = "O=C1C(=Cc2cccn2-c2ccc(O)cc2)C(=O)c2ccccc21"
units_text = "%"
result_number = 70.3

[[record]]
compound = "COc1cc(/C=C2/C(=O)NN(c3cccc(Cl)c3)C2=O)cc(Br)c1O"
units_text = "%"
result_number = 95.1

[[record]]
compound = "CC(C)NC(=O)/C(C#N)=C/c1ccc(N(C)C)o1"
units_text = "%"
result_number = 64.2

[[record]]
compound = "O=C1/C(=C\\c2ccco2)SC(=S)N1Cc1ccccc1"
units_text = "%"
result_number = -1.7

[[record]]
compound = "COc1cc(/C=C2/C(=O)NN(c3ccc(Cl)cc3)C2=O)cc(OC)c1O"
units_text = "%"
result_number = 53.7

[[record]]
compound = "COc1ccccc1N1C(=O)C2C(C(=O)c3ccccc3)=NN(c3ccc(C)cc3)C2C1=O (centres undefined)"
units_text = "%"
result_number = 102

[[record]]
compound = "COc1ccc(O)c(/C=C2/SC(=S)N(Cc3ccccc3)C2=O)c1"
units_text = "%"
result_number = 51


Now let's try a different one.
For the compound shown here, `COc1ccc(-c2cc(C(=O)Nc3ccc(S(=O)(=O)Nc4onc(C)c4C)cc3)c3ccccc3n2)cc1` , give the reported inhibition.
40.8

* * *

Reported inhibition values for a set of compounds
# method: inhibitors of HIV fusion peptide binding, primary screen, biochemical, uHTS, fluorescence dequenching (AID 1986)
# reported-conditions: cell-free peptide binding, 30 min, at 20 µM, stronger effect = higher value
About 890 (0.31%) of roughly 290,000 compounds were called active. The list comes from a sample in which actives are over-represented; it also holds close analogues and randomly drawn compounds.
Give the quantity in %, number only.

[[record]]
compound = "Nc1c(C(=O)Nc2ccccc2)sc2nc3c(c(-c4ccco4)c12)CCC3"
result_number = -1.5

[[record]]
compound = "O=C(CN1C(=O)/C(=C/c2ccco2)SC1=S)Nc1ccc(O)c(C(=O)O)c1"
result_number = 58.3

[[record]]
compound = "Oc1ccc(C=Nc2ccc(N3CCOCC3)cc2)c(O)c1"
result_number = 6.1


Recorded inhibition for O=C(O)c1ccc2c(c1)C1C=CCC1C(c1ccncc1)N2 (stereo not drawn) , please?
24.6

* * *

# method: inhibitors of HIV fusion peptide binding, primary screen, biochemical, uHTS, fluorescence dequenching (AID 1986)
# reported-conditions: cell-free peptide binding, 30 min, measured here: repeat confirmation average inhibition, at 18.6 µM, stronger effect = higher value
About 890 (0.31%) of roughly 290,000 compounds were called active. The full list was thinned out, with actives kept by preference.
parameter: inhibition
Hi, when you answer, please include the unit after the number. Thanks!

[[record]]
compound = "COc1ccccc1/C=C/C=C1N=C(/C=C/c2ccc(Cl)cc2)OC/1=O"
result = "-0.4%"

[[record]]
compound = "CCCCOC(=O)c1ccc(N=Nc2c(C)c(C#N)c(O)[nH]c2=O)cc1"
result = "93.8%"


Let us move to another entry and its inhibition.
Requested read-out: inhibition. Entry: CCOc1cc2c(cc1/C=C/c1noc(C)c1[N+](=O)[O-])OC(C)C2 (stereo not drawn)
62.4%

* * *

# method: inhibitors of HIV fusion peptide binding, primary screen, biochemical, uHTS, fluorescence dequenching (AID 1986)
# reported-conditions: cell-free peptide binding, 30 min, at 20 µM
The whole screen tested about 290,000 compounds, of which about 890 (0.31%) were called active. Rule as the data show it: active = inhibition mostly above about 52% (no sharp cut-off); inactive = mostly below about 76%. This excerpt belongs to a sample that is enriched for actives.
Outcome field: choose from TRUE for active, FALSE for inactive

[[record]]
compound = "CCN1CC=C2C(C#N)=C(N)C(C#N)(C#N)C(c3cc(Cl)ccc3Cl)C2C1 (stereo not given)"
class_assignment = "FALSE"

[[record]]
compound = "CC(C)Nc1cc(N2CCCC2)ccc1[N+](=O)[O-]"
class_assignment = "FALSE"

[[record]]
compound = "COc1cccc2c(=O)c(C(=O)O)c[nH]c12"
class_assignment = "FALSE"

[[record]]
compound = "CCOC(=O)N1CC=C2C(C#N)=C(N)C(C#N)(C#N)[C@H](c3ccccc3OCC)[C@H]2C1"
class_assignment = "FALSE"

[[record]]
compound = "CN1C(=O)/C(=C\\c2ccc(N(C)C)cc2)OC1=S"
class_assignment = "TRUE"


For this compound, state the assay outcome: `CN(C)c1ccc(/C=C2\N=C(C(C)(C)C)OC2=O)cc1`
FALSE

Outcome? COc1cccc(C2C3CN(C)CC=C3C(C#N)=C(N)C2(C#N)C#N)c1OC (stereo not given)
FALSE

For this compound, state the assay outcome: `O=C(CNC(=O)c1ccccc1Br)N/N=C/c1cccnc1`
FALSE

Identify the outcome logged in this assay for the compound shown: `O=C(CSc1nc2ccccc2c(=O)n1Cc1ccco1)N1CCN(c2ccccc2)CC1`
FALSE

Recorded call for `COc1ccc(/C=C2\OC(=S)N(C)C2=O)cc1` ?
FALSE

* * *

# method: inhibitors of HIV fusion peptide binding, primary screen, biochemical, uHTS, fluorescence dequenching (AID 1986)
# reported-conditions: cell-free peptide binding, 30 min, at 20 µM
Among all 290,000 compounds or so, about 890 (0.31%) were called active. Cut-off read from the data, not from the text of the source: active = inhibition mostly above about 52% (no sharp cut-off); inactive = mostly below about 76%. What follows is part of a selection rich in actives, with near analogues and random picks from the rest.
Classes to choose from: 1.0 (active), 0.0 (inactive)

Sample answers from the record:
[[record]]
compound = "COc1ccc(C)cc1NC(=O)c1ccccc1NS(=O)(=O)c1ccc(Cl)s1"
class_assignment = 1.0

[[record]]
compound = "CCCCNC(=O)CC1N=C2c3ccccc3N=C(SCC(=O)Nc3ccccc3OC)N2C1=O (stereo not drawn)"
class_assignment = 0.0

[[record]]
compound = "CN(C)c1ccc(/C=N/N(CCO)C2=NS(=O)(=O)c3ccccc32)cc1"
class_assignment = 0.0

[[record]]
compound = "CCCCC[C@H](O)/C=C/[C@@H]1[C@@H](C/C=C\\CCCC(=O)O)[C@@H](O)C[C@H]1O"
class_assignment = 0.0


Identify the outcome logged in this assay for the compound shown: `CN(C)c1ccc(/C=N/N(CCC#N)C2=NS(=O)(=O)c3ccccc32)cc1`
1.0

Give the logged outcome of this assay for the following compound: `O=C(Nc1nnc(-c2cccc(F)c2)s1)Nc1ccccc1F`
0.0

Assay result, entry `NC(=S)Nc1ccc(Cl)cc1Cl` — outcome?
0.0

Could you please tell me the result logged for `CCCCC[C@H](O)/C=C/[C@@H]1[C@@H](C/C=C\CCCC(=O)O)[C@H]2CO[C@@H]1C2` in this assay?
0.0

* * *

# method: inhibitors of HIV fusion peptide binding, primary screen, biochemical, uHTS, fluorescence dequenching (AID 1986)
# reported-conditions: cell-free peptide binding, 30 min, at 20 µM, stronger effect = higher value
The campaign covered roughly 290,000 compounds. About 890 (0.31%) were called active. Many of the other results were omitted from the sample, so actives are more common in it than they were.
// reported inhibition for each item listed
Could you give me the number in %? Just the number is fine.

A selection of reference data follows.
[[record]]
compound = "N#C/C(=C\\c1ccc(-c2cccc(C(F)(F)F)c2)o1)C(=O)Nn1cnnc1"
parameter = "inhibition"
units_text = "%"
result_number = 49.6

[[record]]
compound = "CCc1nnc(NC(=O)c2ccc(OCc3c(C)noc3C)c(OC)c2)s1"
parameter = "inhibition"
units_text = "%"
result_number = 0.8

[[record]]
compound = "COc1ccc(C=C(c2nc3ccccc3s2)c2nc3ccccc3s2)cc1O"
parameter = "inhibition"
units_text = "%"
result_number = 57.6

[[record]]
compound = "CCOC1OC2C(CO)OC(n3cnc4c(N)ncnc43)C2O1 (centres undefined)"
parameter = "inhibition"
units_text = "%"
result_number = 1.6


Alright, here's another compound for you.
Entry under review: `O=C(O)c1cccc(NC(=S)N/N=C/c2ccccc2OCc2ccc(Br)cc2)c1` . Reported inhibition?
65.6
